tested on: angiotensin II (pressure effects); test: Test for antagonistic activity of angiotensin II in a demedullated rat; type: in vivo; details: iv, demedullated male Sprague-Dawley rats, jugular vein injection 5 minutes before angiotensin II (0.75 micrograms/kg), diastolic arterial pressure, read-out: IC50 (dose which inhibits by 50% the pressure effects of angiotensin II)
measured-property: log10(ED50) (log10 of the value in mg/kg)
Response schema: value (number) is log10 of ED50 in units of mg/kg.

Request: Could you share which log10(ED50) value was measured for CCCCc1nc(SC)c(C(=O)OCOC(=O)C(C)(C)C)n1Cc1ccc(-c2ccccc2-c2nn[nH]n2)cc1 [Example 106] ?
Result: -1.40

Request: One more molecule: CCCCc1nc(SC)c(C(=O)O)n1Cc1ccc(-c2ccccc2C(=O)O)cc1 [Example 22]
Result: -0.33

Request: One more molecule: CCCCc1nc(SC)c(C(=O)O)n1Cc1ccc(-c2ccccc2-c2nnn[nH]2)cc1 [Example 51]
Result: -1.27

Request: One more molecule: CCCCc1nc(SCc2ccccc2)c(CO)n1Cc1ccc(-c2ccccc2C(=O)O)cc1 [Example 74]
Result: -0.47

Request: One more molecule: CCCCc1nc(Sc2ccccc2)c(C(=O)O)n1Cc1ccc(-c2ccccc2-c2nn[nH]n2)cc1 [Example 92]
Result: -1.10

Request: One more molecule: CCCCc1nc(SCc2ccc(OC)cc2)c(C(=O)O)n1Cc1ccc(-c2ccccc2C(=O)O)cc1 [Example 70]
Result: -0.48

Request: One more molecule: CCCCc1nc(S(C)(=O)=O)c(C(=O)O)n1Cc1ccc(-c2ccccc2-c2nn[nH]n2)cc1 [Example 83]
Result: -1.66

Request: One more molecule: CCCCc1nc(S(=O)(=O)CC)c(C(=O)O)n1Cc1ccc(-c2ccccc2C(=O)O)cc1 [Example 18]
Result: -0.10

Request: One more molecule: CCCCc1nc(SCC)c(CO)n1Cc1ccc(-c2ccccc2C(=O)O)cc1 [Example 14]
Result: -0.11

Request: One more molecule: CCCCc1nc([S+]([O-])CC)c(C(=O)O)n1Cc1ccc(-c2ccccc2C(=O)O)cc1 (stereo not shown) [Example 16]
Result: -0.54
